Where these numbers come from: ChEMBL document CHEMBL5154701

System: NCI-H1299
Assay: Antiproliferative against human NCI-H1299 cells assessed as inhibition of cell viability measured after 72 hrs by fluorescence based assay
Assay type: functional
Conditions: NCI-H1299, 72 h
result-type: IC50 (µM)
// note: answer is a bare numeric in µM

Exercise: Which IC50 reading was recorded for the compound Cc1c(-c2cccc(C(F)(F)F)c2)sc2[nH]c(=O)n([C@H](C)c3cccc4ccccc34)c(=O)c12 ?
Key: 7.6

* * *

Assay: Inhibition of human recombinant MIF2 tautomerase activity expressed in bacterial expression system assessed as PP conversion incubated for 10 mins by tautomerase assay
pIC50: −log10 of the molar value.
Cut-off 5 on pIC50, inclusive. At or above means met; below means not met.

For orientation, consider the following solved cases.
molecule: Cc1c(-c2ccc(Cl)cc2)sc2[nH]c(=O)n(Cc3ccccc3)c(=O)c12
discrete-label: met

molecule: CCCCNC(=O)c1cc(-c2ccccc2)sc1NC(=O)CCC
discrete-label: not met

molecule: Cc1c(-c2cccc(C(F)(F)F)c2)sc2[nH]c(=O)n([C@H](C)c3cccc4ccccc34)c(=O)c12
discrete-label: met

molecule: O=c1[nH]c2scc(-c3ccc(Cl)cc3)c2c(=O)n1Cc1ccccc1
discrete-label: not met

molecule: CCCCNC(=O)c1cc(-c2ccccc2)sc1NC(C)=O
discrete-label: not met

Exercise: Item C=CCn1c(=O)[nH]c2sc(-c3ccc(Cl)cc3)cc2c1=O with pIC50 of 5 or above?
Key: not met

Exercise: Likewise for O=C(O)c1cccc(-c2cc(C(=O)O)ncc2C(=O)O)c1 ?
Key: not met

* * *

Assay: Inhibition of MIF2 (unknown origin)
Parameters: species or system Homo sapiens
pIC50: −log10 of the molar value.
result-type: pIC50

Exercise: Which pIC50 reading was recorded for the compound Ic1cc(-c2ccccc2)ncn1 ?
Key: < 4.00

* * *

Test: Inhibition of human recombinant MIF2 tautomerase activity expressed in bacterial expression system assessed as PP conversion incubated for 10 mins by tautomerase assay
pIC50: −log10 of the molar value.
Cut-off 5 on pIC50, inclusive. At or above means 1 (yes); below means 0 (no).

smiles: CCCCNC(=O)c1cc(-c2ccc(Cl)cc2)sc1N
discrete-label: 0 (no)

smiles: Cc1c(-c2ccc(F)cc2)sc2nc(Cc3ccccc3)[nH]c(=O)c12
discrete-label: 0 (no)

smiles: Cc1c(-c2ccc(Cl)c(Cl)c2)sc2[nH]c(=O)n(Cc3ccccc3)c(=O)c12
discrete-label: 1 (yes)

smiles: Cc1c(-c2ccc(Cl)cc2)sc2nc(Cc3ccccc3)[nH]c(=O)c12
discrete-label: 0 (no)

smiles: CCCCNC(=O)c1c(N)sc(-c2ccc(Cl)cc2)c1CCCC
discrete-label: 0 (no)

Exercise: Item Cc1c(-c2cccc(C(F)(F)F)c2)sc2[nH]c(=O)n(Cc3cccc4ccccc34)c(=O)c12 with pIC50 of 5 or above?
Key: 1 (yes)

Exercise: Likewise for COc1cccc(Cc2nc3sc(-c4ccc(Cl)cc4)c(C)c3c(=O)[nH]2)c1 ?
Key: 1 (yes)

Exercise: Likewise for CCCCn1c(=O)[nH]c2sc(-c3ccccc3)cc2c1=O ?
Key: 0 (no)

Exercise: Likewise for Cc1c(-c2cccc(C(F)(F)F)c2)sc2[nH]c(=O)n(Cc3ccccc3)c(=O)c12 ?
Key: 1 (yes)

* * *

Test: Inhibition of human recombinant MIF2 tautomerase activity expressed in bacterial expression system assessed as PP conversion incubated for 10 mins by tautomerase assay
result-type: IC50 (µM)
// note: answer is a bare numeric in µM

compound: CCCCNC(=O)c1cc(-c2ccc(Br)cc2)sc1N
unit-name: µM
test-result: 7.2
--
compound: Cc1c(-c2ccc(Cl)cc2)sc2[nH]c(=O)n(Cc3ccc(C(F)(F)F)cc3)c(=O)c12
unit-name: µM
test-result: 4.8
--
compound: Cc1c(-c2cccc(C(F)(F)F)c2)sc2[nH]c(=O)n([C@@H](C)c3cccc4ccccc34)c(=O)c12
unit-name: µM
test-result: 2.5
--
compound: Cc1c(-c2ccc3c(c2)OCO3)sc2[nH]c(=O)n(Cc3ccccc3)c(=O)c12
unit-name: µM
test-result: 4.6
--
compound: Cc1c(-c2ccc(Cl)cc2)sc2nc(CCl)[nH]c(=O)c12
unit-name: µM
test-result: 17

Exercise: Which IC50 reading was recorded for the compound Nc1sc(-c2ccc(Cl)cc2)cc1C(=O)NCCc1ccccc1 ?
Key: 84

Exercise: Likewise for Nc1sc(-c2ccccc2)cc1C(=O)NCC1CCOC1 (configuration not stated) ?
Key: 168
